Dear all, I have gathered published pIC50 values for 5-hydroxytryptamine receptor 1A (Rattus norvegicus, UniProt P19327); the list follows.
pIC50: −log10 of the molar value.
Kindly return YES if reported pIC50 is no lower than 7; return NO if it is lower.

Smiles Data: O=C1CC2(CCCC2)CC(=O)N1OCCN1CCN(c2nsc3ccccc23)CC1
Answer Label: NO
--
Smiles Data: N#Cc1ccc2[nH]cc(CCCCN3CCN(c4ccccc4C(N)=O)CC3)c2c1
Answer Label: YES
--
Smiles Data: COc1ccc(NC(=O)c2ccc(-c3ccc(-c4noc(C)n4)cc3C)cc2)cc1N1CCN(C)CC1
Answer Label: NO

Task: Hi, just wondering whether Fc1ccc(-c2cncc(CN3CCN(c4cnccn4)CC3)c2)cc1 shows pIC50 of 7 or higher.
Result: NO

Task: # bool: pIC50 of CN(CCCCN1CCC(C(=O)c2ccc(F)cc2)CC1)C(=O)c1nsc2ccccc12 >= 7
Result: NO

Task: Check the entry CCOCCOCCOc1cccc(N2CCN(CCCCc3c[nH]c4ccc(C#N)cc34)CC2)c1C#N : does pIC50 equal or exceed 7?
Result: YES

Task: Does COc1ccccc1N1CCN(C[C@@H](C(=O)NC(C)(C)C)c2ccccc2)CC1 have a reported pIC50 of at least 7?
Result: YES

Task: Check the entry O=C(O)c1ccc2[nH]cc(CCCCN3CCN(c4ccc5c(c4)OCCO5)CC3)c2c1 : does pIC50 equal or exceed 7?
Result: YES
